- System Tested: hOT-R (Homo sapiens, UniProt P30559)
- Sequence (P30559 1-389): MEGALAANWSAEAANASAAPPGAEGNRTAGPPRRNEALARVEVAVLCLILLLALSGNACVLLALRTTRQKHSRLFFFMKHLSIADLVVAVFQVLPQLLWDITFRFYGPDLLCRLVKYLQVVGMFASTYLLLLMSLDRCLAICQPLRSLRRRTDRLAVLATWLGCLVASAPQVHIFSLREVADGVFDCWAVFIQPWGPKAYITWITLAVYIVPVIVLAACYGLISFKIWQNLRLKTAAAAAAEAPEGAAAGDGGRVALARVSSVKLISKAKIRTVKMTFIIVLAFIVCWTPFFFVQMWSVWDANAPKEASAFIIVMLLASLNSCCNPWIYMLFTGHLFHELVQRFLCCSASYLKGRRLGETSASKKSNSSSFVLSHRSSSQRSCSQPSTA
- Assay Details: Inhibition of oxytocin mediated Ca2+-mobilization by FLIPR (HEK cells)
- Condition Description: fluo-4, OT 40 nM
pIC50: −log10 of the molar value.
Reported Metric: pIC50

In the examples that follow, each entry is paired with its recorded pIC50.
COC(=O)c1cccc2c1NC(=O)/C2=N\NC(=O)CN(c1ccc(Cl)cc1)S(=O)(=O)c1ccc(OCCCN(C)C)cc1 [Example 70]    6.41
O=C(CN(c1ccc(Cl)cc1)S(=O)(=O)c1ccc(OCCN2CCOCC2)cc1)NN=C1C(=O)Nc2ccccc21 [Example 55]    8.15
Cc1c(Cl)cccc1NC(=O)CN(c1ccc(Br)cc1)S(=O)(=O)c1ccccc1    6.45
Cc1ccc(N(CC(=O)NCc2ccc(Cl)cc2Cl)S(=O)(=O)c2ccc(C)cc2)cc1    6.23
CCOc1ccc(S(=O)(=O)N(CC(=O)N/N=C2/C(=O)Nc3ccccc32)c2ccc(C)cc2)cc1 [Example 5]    7.26

[1] O=C(CN(c1ccc(Cl)cc1)S(=O)(=O)c1ccc(OCCCc2cccnc2)cc1)N/N=C1\C(=O)Nc2ccccc21 [Example 63]
[2] COCCOCCOc1ccc(S(=O)(=O)N(CC(=O)N/N=C2\C(=O)Nc3ccccc32)c2ccc(Cl)cc2)cc1 [Example 61]
[3] COc1ccc(N(CC(=O)Nc2cccc3ccccc23)S(=O)(=O)c2ccccc2)cc1
[4] CCOc1ccc(S(=O)(=O)N(CC(=O)N/N=C2\C(=O)Nc3ccccc32)c2ccc(Cl)cc2)cc1 [Example 40]
Challenge: Sequence the entries by pIC50, beginning with the highest number. // format: requested-order list of labels
Response given: 2, 1, 4, 3

[P] COCCOc1ccc(S(=O)(=O)N(CC(=O)N/N=C2\C(=O)Nc3ccccc32)c2ccc(Cl)cc2)cc1 [Example 62]
[Q] O=C(CN(c1ccc(Cl)cc1)S(=O)(=O)c1ccc(NCCN2CCOCC2)cc1)N/N=C1\C(=O)Nc2ccccc21 [Example 65]
Challenge: Could you determine which record has the numerically smaller pIC50? Candidates: P and Q Reply with the label of the item you choose.
Response given: Q

[a] COc1ccc(N(CC(=O)Nc2cccc(Cl)c2C)S(=O)(=O)c2ccccc2)cc1
[b] COc1ccc(N(CC(=O)Nc2cccc(OC)c2)S(=O)(=O)c2ccccc2)cc1
Challenge: Endpoint returns the identifier whose pIC50 is numerically larger, either a or b . Reply with the label of the item you choose.
Response given: a
